# Tested On: Protein-glutamine gamma-glutamyltransferase (Homo sapiens, UniProt P21980)
# Sequence (P21980 whole entry): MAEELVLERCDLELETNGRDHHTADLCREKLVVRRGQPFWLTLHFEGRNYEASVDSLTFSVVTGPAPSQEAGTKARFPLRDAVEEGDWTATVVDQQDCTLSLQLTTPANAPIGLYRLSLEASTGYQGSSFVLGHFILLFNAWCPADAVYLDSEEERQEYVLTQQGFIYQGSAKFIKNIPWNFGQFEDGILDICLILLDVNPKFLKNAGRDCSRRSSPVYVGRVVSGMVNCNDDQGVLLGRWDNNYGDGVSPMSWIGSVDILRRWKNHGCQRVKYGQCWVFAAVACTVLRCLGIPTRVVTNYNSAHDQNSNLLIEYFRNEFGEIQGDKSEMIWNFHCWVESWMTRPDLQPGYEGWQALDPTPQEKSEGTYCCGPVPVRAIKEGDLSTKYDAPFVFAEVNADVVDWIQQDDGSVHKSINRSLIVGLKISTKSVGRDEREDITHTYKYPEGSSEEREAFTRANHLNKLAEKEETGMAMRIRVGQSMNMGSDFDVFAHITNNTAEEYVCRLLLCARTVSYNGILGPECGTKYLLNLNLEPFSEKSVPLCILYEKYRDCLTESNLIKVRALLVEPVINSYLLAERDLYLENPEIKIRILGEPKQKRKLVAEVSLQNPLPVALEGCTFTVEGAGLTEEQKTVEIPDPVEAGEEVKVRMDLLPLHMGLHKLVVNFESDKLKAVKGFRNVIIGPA
# Protocol Summary: Inhibition of human transglutaminase 2 using ZGBC as a substrate after 30 to 60 mins by fluorometric assay
pIC50: −log10 of the molar value.
If the reported pIC50 equals or exceeds 6, assign Met. If not, assign Not met.

[[record]]
structure_smiles_string = "O=C1Nc2ccccc2/C1=C\\C(=O)c1cccnc1"
tested_on = "Protein-glutamine gamma-glutamyltransferase (Homo sapiens, UniProt P21980)"
assigned_label = "Not met"

[[record]]
structure_smiles_string = "Nc1cccc(C(=O)/C=C2/C(=O)Nc3cccc(Cl)c32)c1"
tested_on = "Protein-glutamine gamma-glutamyltransferase (Homo sapiens, UniProt P21980)"
assigned_label = "Not met"

[[record]]
structure_smiles_string = "CN1C(=O)/C(=C/C(=O)c2cccnc2)c2c(Cl)cccc21"
tested_on = "Protein-glutamine gamma-glutamyltransferase (Homo sapiens, UniProt P21980)"
assigned_label = "Not met"

[[record]]
structure_smiles_string = "O=C1Nc2c(Br)cccc2/C1=C\\C(=O)c1cccnc1"
tested_on = "Protein-glutamine gamma-glutamyltransferase (Homo sapiens, UniProt P21980)"
assigned_label = "Not met"

[[record]]
structure_smiles_string = "O=C(/C=C1/C(=O)N(CCc2ccccc2)c2cccc(Cl)c21)c1cccnc1"
tested_on = "Protein-glutamine gamma-glutamyltransferase (Homo sapiens, UniProt P21980)"
assigned_label = "Not met"

[[record]]
structure_smiles_string = "COC(=O)c1cccc(CN2C(=O)/C(=C/C(=O)c3cccnc3)c3c(Cl)cccc32)c1"
tested_on = "Protein-glutamine gamma-glutamyltransferase (Homo sapiens, UniProt P21980)"
assigned_label = "Not met"

[[record]]
structure_smiles_string = "O=C1Nc2ccc([N+](=O)[O-])cc2/C1=C\\C(=O)c1cccnc1"
tested_on = "Protein-glutamine gamma-glutamyltransferase (Homo sapiens, UniProt P21980)"
assigned_label = "Not met"

[[record]]
structure_smiles_string = "O=C1Nc2cccc(Cl)c2/C1=C\\C(=O)c1ccc(Cl)cc1"
tested_on = "Protein-glutamine gamma-glutamyltransferase (Homo sapiens, UniProt P21980)"
assigned_label = "Met"

[[record]]
structure_smiles_string = "O=C1Nc2cccc(Cl)c2/C1=C\\C(=O)c1cccnc1"
tested_on = "Protein-glutamine gamma-glutamyltransferase (Homo sapiens, UniProt P21980)"
assigned_label = "Not met"

[[record]]
structure_smiles_string = "O=C1Nc2cc(Br)ccc2/C1=C\\C(=O)c1cccnc1"
tested_on = "Protein-glutamine gamma-glutamyltransferase (Homo sapiens, UniProt P21980)"
assigned_label = "Met"


====

Below, each of the compounds is paired with its reported pIC50 value.
# Tested On: Protein-glutamine gamma-glutamyltransferase (Homo sapiens)
# Sequence (P21980 whole entry): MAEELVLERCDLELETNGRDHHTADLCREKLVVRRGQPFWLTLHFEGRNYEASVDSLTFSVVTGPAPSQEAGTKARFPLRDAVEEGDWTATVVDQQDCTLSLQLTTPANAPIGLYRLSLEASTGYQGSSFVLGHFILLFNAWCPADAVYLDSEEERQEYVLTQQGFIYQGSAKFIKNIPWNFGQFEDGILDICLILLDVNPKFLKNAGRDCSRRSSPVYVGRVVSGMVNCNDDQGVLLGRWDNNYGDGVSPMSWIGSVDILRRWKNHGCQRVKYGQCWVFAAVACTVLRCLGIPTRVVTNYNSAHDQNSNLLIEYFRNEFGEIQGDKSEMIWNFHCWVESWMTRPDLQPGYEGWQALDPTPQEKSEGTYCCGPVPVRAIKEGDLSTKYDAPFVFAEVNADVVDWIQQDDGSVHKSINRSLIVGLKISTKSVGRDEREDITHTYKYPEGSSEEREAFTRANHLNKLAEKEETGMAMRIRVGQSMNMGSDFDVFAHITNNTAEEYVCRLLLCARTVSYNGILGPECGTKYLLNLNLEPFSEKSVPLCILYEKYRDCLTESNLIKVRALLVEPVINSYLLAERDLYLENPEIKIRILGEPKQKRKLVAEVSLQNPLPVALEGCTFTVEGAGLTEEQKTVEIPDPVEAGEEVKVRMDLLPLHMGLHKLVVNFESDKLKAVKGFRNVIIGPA
# Protocol Summary: Inhibition of human transglutaminase 2 using Cbz-Gln-Gly as a substrate by GDH-coupled assay
pIC50: −log10 of the molar value.
Readout Kind: pIC50

[[record]]
structure_smiles_string = "O=C1Nc2ccc(Cc3ccc4c(c3)C(=O)C(=O)N4)cc2C1=O"
prefix_operator = "="
number = 4.52

[[record]]
structure_smiles_string = "CC(=O)/C=C1/C(=O)Nc2cccc(Cl)c21"
prefix_operator = "="
number = 5.82

[[record]]
structure_smiles_string = "COc1ccncc1C(=O)/C=C1/C(=O)Nc2cccc(Cl)c21"
prefix_operator = "="
number = 5.85

[[record]]
structure_smiles_string = "O=C(/C=C1/C(=O)N(Cc2ccccc2)c2cccc(Cl)c21)c1cccnc1"
prefix_operator = "="
number = 5.82

[[record]]
structure_smiles_string = "Cc1cc(CN2C(=O)C(=O)c3ccccc32)c(C)cc1CN1C(=O)C(=O)c2ccccc21"
prefix_operator = "<"
number = 3.60

[[record]]
structure_smiles_string = "Nc1cccc(C(=O)/C=C2/C(=O)Nc3cccc(Cl)c32)c1"
prefix_operator = "="
number = 5.85

[[record]]
structure_smiles_string = "O=C1Nc2ccccc2/C1=C1\\C(=O)Nc2ccccc21"
prefix_operator = "="
number = 5.10

[[record]]
structure_smiles_string = "Cc1cc(C)c(CN2C(=O)C(=O)c3ccccc32)cc1CN1C(=O)C(=O)c2ccccc21"
prefix_operator = "="
number = 4.40

[[record]]
structure_smiles_string = "O=C1Nc2cccc(Cl)c2/C1=C\\C(=O)c1cccc(Cl)c1"
prefix_operator = "="
number = 6.15

[[record]]
structure_smiles_string = "O=C1Nc2cccc(Cl)c2/C1=C\\C(=O)c1cccnc1"
prefix_operator = "="
number = 6.05

[[record]]
structure_smiles_string = "COc1cccc(C(=O)/C=C2/C(=O)Nc3cccc(Cl)c32)c1"
prefix_operator = "="
number = 6.00

[[record]]
structure_smiles_string = "O=C1Nc2ccc(Cl)cc2/C1=C\\C(=O)c1cccnc1"
prefix_operator = "="
number = 5.22

[[record]]
structure_smiles_string = "O=C1Nc2c(Br)cccc2/C1=C\\C(=O)c1cccnc1"
prefix_operator = "="
number = 5.54

[[record]]
structure_smiles_string = "O=C1Nc2ccccc2/C1=C1/Nc2ccccc2C1=O"
prefix_operator = "<"
number = 4.00

[[record]]
structure_smiles_string = "COC(=O)c1cccc(CN2C(=O)/C(=C/C(=O)c3cccnc3)c3c(Cl)cccc32)c1"
prefix_operator = "="
number = 5.96

[[record]]
structure_smiles_string = "CN(C)C(=O)CN1C(=O)/C(=C/C(=O)c2cccnc2)c2c(Cl)cccc21"
prefix_operator = "="
number = 5.26

[[record]]
structure_smiles_string = "O=C1C(=O)N(CN2C(=O)C(=O)c3ccccc32)c2ccccc21"
prefix_operator = "="
number = 4.74

[[record]]
structure_smiles_string = "O=C1Nc2c(Cl)cccc2/C1=C\\C(=O)c1cccnc1"
prefix_operator = "="
number = 5.14

[[record]]
structure_smiles_string = "O=C1Nc2ccccc2C1=O"
prefix_operator = "<"
number = 3.60

[[record]]
structure_smiles_string = "Nc1ccc(C(=O)/C=C2/C(=O)Nc3cccc(Cl)c32)cc1"
prefix_operator = "="
number = 5.96

[[record]]
structure_smiles_string = "O=C1Nc2cccc(Br)c2/C1=C\\C(=O)c1cccnc1"
prefix_operator = "="
number = 6.05

[[record]]
structure_smiles_string = "O=C(/C=C1/C(=O)N(CCc2ccccc2)c2cccc(Cl)c21)c1cccnc1"
prefix_operator = "="
number = 5.82

[[record]]
structure_smiles_string = "CC(C)N1C(=O)/C(=C/C(=O)c2cccnc2)c2c(Cl)cccc21"
prefix_operator = "="
number = 5.85

[[record]]
structure_smiles_string = "CN1C(=O)/C(=C/C(=O)c2cccnc2)c2c(Cl)cccc21"
prefix_operator = "="
number = 5.40

[[record]]
structure_smiles_string = "CC(=O)/C=C1/C(=O)Nc2cc(F)ccc21"
prefix_operator = "="
number = 4.96

[[record]]
structure_smiles_string = "O=C(/C=C1/C(=O)N(c2ccccc2)c2cccc(Cl)c21)c1cccnc1"
prefix_operator = "="
number = 6.10

[[record]]
structure_smiles_string = "Cc1ccc2c(c1)/C(=C\\C(=O)c1cccnc1)C(=O)N2"
prefix_operator = "="
number = 5.20

[[record]]
structure_smiles_string = "O=C1Nc2ccc(Oc3ccc4c(c3)C(=O)C(=O)N4)cc2C1=O"
prefix_operator = "="
number = 4.60

[[record]]
structure_smiles_string = "O=C(/C=C1/C(=O)N(CC2CCCCC2)c2cccc(Cl)c21)c1cccnc1"
prefix_operator = "="
number = 5.68

[[record]]
structure_smiles_string = "O=C1Nc2cccc(Cl)c2/C1=C\\C(=O)c1ccc(Cl)cc1"
prefix_operator = "="
number = 6.10

[[record]]
structure_smiles_string = "COc1ccccc1C(=O)/C=C1/C(=O)Nc2cccc(Cl)c21"
prefix_operator = "="
number = 6.05

[[record]]
structure_smiles_string = "O=C1Nc2cccc(Cl)c2/C1=C\\C(=O)c1cncc(Br)c1"
prefix_operator = "="
number = 5.85

[[record]]
structure_smiles_string = "CC(=O)/C=C1/C(=O)Nc2ccccc21"
prefix_operator = "="
number = 4.96

[[record]]
structure_smiles_string = "COc1ccc(C(=O)/C=C2/C(=O)Nc3cccc(Cl)c32)cc1"
prefix_operator = "="
number = 5.96

[[record]]
structure_smiles_string = "O=C(/C=C1/C(=O)N(CCCc2ccccc2)c2cccc(Cl)c21)c1cccnc1"
prefix_operator = "="
number = 5.89

[[record]]
structure_smiles_string = "CCOC(=O)CN1C(=O)/C(=C/C(=O)c2cccnc2)c2c(Cl)cccc21"
prefix_operator = "="
number = 5.74

[[record]]
structure_smiles_string = "O=C1Nc2cccc(Cl)c2/C1=C\\C(=O)c1ccccc1"
prefix_operator = "="
number = 5.55

[[record]]
structure_smiles_string = "O=C1Nc2cc(Br)ccc2/C1=C\\C(=O)c1cccnc1"
prefix_operator = "="
number = 5.82

[[record]]
structure_smiles_string = "CC(C)CN1C(=O)/C(=C/C(=O)c2cccnc2)c2c(Cl)cccc21"
prefix_operator = "="
number = 6.00

[[record]]
structure_smiles_string = "O=C1Nc2cc(Cl)ccc2/C1=C\\C(=O)c1cccnc1"
prefix_operator = "="
number = 5.68

[[record]]
structure_smiles_string = "O=C1Nc2ccccc2/C1=C\\C(=O)c1cccnc1"
prefix_operator = "="
number = 4.66

[[record]]
structure_smiles_string = "O=C1Nc2ccc([N+](=O)[O-])cc2/C1=C\\C(=O)c1cccnc1"
prefix_operator = "="
number = 5.10

[[record]]
structure_smiles_string = "O=C1Nc2cccc(Cl)c2/C1=C\\C(=O)c1ccccn1"
prefix_operator = "="
number = 5.96

[[record]]
structure_smiles_string = "O=C1Nc2ccc(Br)cc2/C1=C\\C(=O)c1cccnc1"
prefix_operator = "="
number = 5.32

[[record]]
structure_smiles_string = "CC(=O)/C=C1/C(=O)Nc2cc(OC(F)(F)F)ccc21"
prefix_operator = "="
number = 5.44

[[record]]
structure_smiles_string = "O=C1Nc2cccc(Cl)c2/C1=C\\C(=O)c1ccncc1"
prefix_operator = "="
number = 5.92

